# Assay Overview: Steady-state pharmacokinetics of momelotinib and metabolite GS-644603 (LC–MS/MS, noncompartmental)
# Format: in vivo, human
# Condition Details: human, in vivo, oral, momelotinib analyte; day 15 of cycle 1; momelotinib 100 mg QD + erlotinib; n = 2; median (Q1, Q3)
Measurement Name: half-life (h)
The reply should contain only the number, in h.

// field: half-life; key: N#CCNC(=O)c1ccc(-c2ccnc(Nc3ccc(N4CCOCC4)cc3)n2)cc1 ; value = 11.8

###

# Assay Overview: Steady-state pharmacokinetics of momelotinib and metabolite GS-644603 (LC–MS/MS, noncompartmental)
# Format: in vivo, human
# Condition Details: human, in vivo, oral, momelotinib analyte; day 15 of cycle 1; momelotinib 100 mg BID + erlotinib; n = 4; mean (%CV)
Measurement Name: Cmax (ng/mL)
The reply should contain only the number, in ng/mL.

// field: Cmax; key: N#CCNC(=O)c1ccc(-c2ccnc(Nc3ccc(N4CCOCC4)cc3)n2)cc1 ; value = 884

From: paper PMC8739290
